Tested on: Pseud. aeruginosa UI-18
assay-summary: in vitro antibacterial activity, microtitration dilution (MIC), Pseud. aeruginosa UI-18
Type: cell-based
condition-label: Pseudomonas aeruginosa, UI18, read-out: minimum inhibiting concentration (MIC)
measurement-type: MIC (µg/mL)

[
  {
    "test-smiles": "C[C@H](N)[C@@H]1CCN(c2c(F)cc3c(=O)c(C(=O)O)cn(C4CC4)c3c2C(F)(F)F)C1",
    "target-desc": "Pseud. aeruginosa UI-18",
    "measured-value": 1.6
  },
  {
    "test-smiles": "CCN[C@@H](C)[C@@H]1CCN(c2c(F)cc3c(=O)c(C(=O)O)cn(C4CC4)c3c2OC)C1",
    "target-desc": "Pseud. aeruginosa UI-18",
    "measured-value": 3.1
  },
  {
    "test-smiles": "C[C@@H](N)[C@@H]1CCN(c2nc3c(cc2F)c(=O)c(C(=O)O)cn3C2CC2)C1",
    "target-desc": "Pseud. aeruginosa UI-18",
    "measured-value": 0.8
  },
  {
    "test-smiles": "CN[C@@H](C)[C@@H]1CCN(c2c(F)c(N)c3c(=O)c(C(=O)O)cn(C4CC4)c3c2F)C1",
    "target-desc": "Pseud. aeruginosa UI-18",
    "measured-value": 0.8
  },
  {
    "test-smiles": "CN[C@H](C)[C@@H]1CCN(c2nc3c(cc2F)c(=O)c(C(=O)O)cn3C2CC2)C1",
    "target-desc": "Pseud. aeruginosa UI-18",
    "measured-value": 1.6
  },
  {
    "test-smiles": "C[C@H](N)[C@@H]1CCN(c2c(F)c(N)c3c(=O)c(C(=O)O)cn(C4CC4)c3c2F)C1",
    "target-desc": "Pseud. aeruginosa UI-18",
    "measured-value": 0.4
  },
  {
    "test-smiles": "C[C@H](N)[C@H]1CCN(c2cc3c(cc2F)c(=O)c(C(=O)O)cn3C2CC2)C1",
    "target-desc": "Pseud. aeruginosa UI-18",
    "measured-value": 1.5
  }
]
